Values were extracted from patent US10807968B2.

In this section, each of the compounds is paired with its reported logp-acidic.
Assay Info: log P determination by HPLC on reversed-phase (C18) columns, OECD Guideline 117
Assay type: physicochemical
Assay Context: pH 2.7
Reply briefly: the number, and no unit.

Measured logp-acidic of CSc1cccc(-c2ncc(C(=O)N(C)c3cccnc3)n2C)c1 : 1.24

// sample COc1ccc(-c2ncc(C(=O)N(C)c3cccnc3)n2C)cn1 , its logp-acidic was 0.58

For this compound ( CCOC(=O)COc1cccc(-c2ncc(C(=O)N(C)c3cccnc3)n2C)c1 ), measured logp-acidic is 1.18

Entry CN(C(=O)c1cnc(-c2ccc(F)c(COC(=O)C3CC3)c2)n1C)c1cccnc1 ; logp-acidic = 0.73
